tested on: LOC_OS01G39600-cb002; test: thermal shift delta Tm vs DMSO control; higher = stronger stabilization (binding); conditions: 12.5 µM; protein concentration 2 µM;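 also: purified Escherichia coli-expressed rice kinase domain construct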
Each entry below carries its reported thermal shift delta Tm.
Provide only the numeric value, understood in °C.

# input molecule: c1ccc(-c2[nH]ncc2-c2ccnc3ccccc23)nc1 ; wanted: its thermal shift delta Tm
0.33

# input molecule: C=CC(=O)Nc1cccc(Oc2nc(Nc3ccc(N4CCN(C)CC4)cc3)ncc2Cl)c1 ; wanted: its thermal shift delta Tm
3.8

# input molecule: Cc1cc(C)c(/C=C2\C(=O)Nc3ccccc32)[nH]1 [Semaxanib (SU5416)] ; wanted: its thermal shift delta Tm
0.58

# input molecule: COc1cc2ncnc(Oc3ccc(CC(=O)Nc4cnn(C(C)C)c4)cc3)c2cc1OC ; wanted: its thermal shift delta Tm
-1.25
